Biological target: T1, human APRIL protein (human, UniProt O75888 105-250, limits assumed)
T1 construct: Bought protein; also called recombinant APRIL protein
T1 sequence (looked up): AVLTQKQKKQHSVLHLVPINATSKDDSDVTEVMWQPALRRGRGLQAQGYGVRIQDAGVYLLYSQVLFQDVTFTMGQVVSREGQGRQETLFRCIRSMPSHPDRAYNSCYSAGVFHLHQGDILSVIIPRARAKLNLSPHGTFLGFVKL
Test: ELISA, coated APRIL; antibody 2.67 nM
endpointName: OD450 nm
Write the number on its own, no unit after it.

[in] Name the recorded OD450 nm of the binder listed here: 2-1G11 (antibody, human IgG1, V domains shown) VH: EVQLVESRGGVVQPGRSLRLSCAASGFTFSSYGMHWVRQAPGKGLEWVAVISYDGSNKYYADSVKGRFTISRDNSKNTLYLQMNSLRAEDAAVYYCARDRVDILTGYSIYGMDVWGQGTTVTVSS VL: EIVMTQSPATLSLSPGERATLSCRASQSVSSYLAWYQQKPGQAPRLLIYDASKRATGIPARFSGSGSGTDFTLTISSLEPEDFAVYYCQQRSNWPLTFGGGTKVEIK
[out] 0.0901

[in] Indicate its recorded OD450 nm; the binder in question is 67A2E1D10 (antibody, V domains shown, Mouse hybridoma antibody purified on Protein G) VH: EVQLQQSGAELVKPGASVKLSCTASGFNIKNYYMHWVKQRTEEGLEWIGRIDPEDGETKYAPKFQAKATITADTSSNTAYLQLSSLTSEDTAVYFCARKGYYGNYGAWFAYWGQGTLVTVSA VL: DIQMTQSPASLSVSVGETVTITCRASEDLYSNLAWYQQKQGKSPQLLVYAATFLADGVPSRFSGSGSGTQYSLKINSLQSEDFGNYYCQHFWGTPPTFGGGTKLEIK
[out] 0.0673

[in] Respond only with OD450 nm recorded for 97E7B3F2 (antibody, V domains shown) VH: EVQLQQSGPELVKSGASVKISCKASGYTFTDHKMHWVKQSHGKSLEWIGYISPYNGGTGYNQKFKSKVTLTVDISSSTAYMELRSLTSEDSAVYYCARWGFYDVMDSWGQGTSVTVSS VL: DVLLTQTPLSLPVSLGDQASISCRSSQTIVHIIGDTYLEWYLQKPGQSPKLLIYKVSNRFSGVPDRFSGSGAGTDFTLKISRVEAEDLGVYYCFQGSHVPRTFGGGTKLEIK
[out] 0.0707

[in] Give the reported OD450 nm for this binder. 89A2G5E7 (antibody, V domains shown, Mouse hybridoma antibody purified on Protein G) VH: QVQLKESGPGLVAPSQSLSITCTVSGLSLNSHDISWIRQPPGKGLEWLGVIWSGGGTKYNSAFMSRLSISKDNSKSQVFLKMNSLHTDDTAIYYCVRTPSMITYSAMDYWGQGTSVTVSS VL: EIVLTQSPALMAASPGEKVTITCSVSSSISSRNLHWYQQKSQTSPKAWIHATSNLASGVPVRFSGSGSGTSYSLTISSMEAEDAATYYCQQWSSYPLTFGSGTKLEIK
[out] 0.0614

[in] Recall and state the measured OD450 nm for 111D10D6G3 (antibody, V domains shown, Mouse hybridoma antibody purified on Protein G) VH: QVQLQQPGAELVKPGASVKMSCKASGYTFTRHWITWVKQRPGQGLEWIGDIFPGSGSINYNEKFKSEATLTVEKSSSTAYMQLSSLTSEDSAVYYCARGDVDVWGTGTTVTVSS VL: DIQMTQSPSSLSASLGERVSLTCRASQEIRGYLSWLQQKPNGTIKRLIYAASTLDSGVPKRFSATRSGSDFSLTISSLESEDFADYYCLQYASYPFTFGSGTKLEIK .
[out] 0.0583

Values compiled from patent US20210347873A1.
